- target_desc: T1, recombinant human IL-36R extracellular domain expressed with a C-terminal myc-myc-hexahistidine tag (human, UniProt Q9HB29 20-337)
- T1 construct: also called hIL-36R-MMH; hIL-36R.mmH
- assay_summary: SPR (Biacore 4000), mAb captured on anti-human Fc, 37°C
measured_quantity: t½ (min)
Answer with a number only, understood to be in min.

Example cases with answers are listed next.
1) H4H14708P2 (antibody, human IgG4 S228P, kappa, V domains shown) VH: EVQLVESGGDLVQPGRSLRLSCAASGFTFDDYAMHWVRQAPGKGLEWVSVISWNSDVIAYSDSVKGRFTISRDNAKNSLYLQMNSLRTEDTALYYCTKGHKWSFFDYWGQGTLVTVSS VL: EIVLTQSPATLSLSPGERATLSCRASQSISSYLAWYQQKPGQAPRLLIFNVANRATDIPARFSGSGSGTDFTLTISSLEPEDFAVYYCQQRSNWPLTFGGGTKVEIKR ... 6
2) H4H14757P (antibody, human IgG4 S228P, kappa, V domains shown) VH: EVQLVESGGGLVQPGRSLRLSCTASGFTFDDYAMHWVRQAPGKGLEWVSGIRWNGGSIGYVDSVKGRFTISRDNAKKSLHLQMNSLKTEDTALYYCAKDIGDILTGFYGEYGMDVWGQGTTVTVSS VL: DIQMTQSPSSLSASEGDRVTITCRASQSISSYLNWYQQKAGKAPNLLIYAASSLQSGVPSRFSGSGSGTEYTLTISSLQPEDFATYYCQQSYIIPYTFGQGTKLEIKR ... 11
3) H4H14700P2 (antibody, human IgG4 S228P, kappa, V domains shown) VH: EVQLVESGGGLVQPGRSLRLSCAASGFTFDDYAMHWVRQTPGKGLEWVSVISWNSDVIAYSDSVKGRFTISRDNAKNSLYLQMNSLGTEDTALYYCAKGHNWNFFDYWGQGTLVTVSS VL: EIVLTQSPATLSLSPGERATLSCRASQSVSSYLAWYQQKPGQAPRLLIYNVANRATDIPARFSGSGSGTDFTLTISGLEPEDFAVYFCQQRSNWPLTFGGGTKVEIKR ... 6

Turning now to a further record.
Kindly note the recorded t½ for H4H14758P (antibody, human IgG4 S228P, kappa, V domains shown) VH: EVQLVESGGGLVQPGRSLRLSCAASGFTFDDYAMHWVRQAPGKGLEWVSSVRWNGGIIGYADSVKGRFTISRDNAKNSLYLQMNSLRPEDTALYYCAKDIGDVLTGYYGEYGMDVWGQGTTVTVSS VL: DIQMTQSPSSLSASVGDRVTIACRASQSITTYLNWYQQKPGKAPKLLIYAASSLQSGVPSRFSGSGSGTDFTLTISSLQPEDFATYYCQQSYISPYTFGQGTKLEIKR , which is 5
